# Measurement description: Hydroxyl free radical scavenging activity (DMPO signal peak height)
# Assay type: biochemical
# Test parameters: n = 6; read-out: EC50 of scavenging •OH
Category key, based on recorded EC50: low end = under 400 µM, middle = from 400 µM up to 500 µM, high end = 500 µM and over

Some solved entries appear below for comparison.
C[C@H](NC(=O)[C@@H]1CCCN1)C(=O)N1CCC[C@H]1C(=O)NCCCC[C@H](NC(=O)[C@@H]1Cc2cc(O)c(O)cc2C(C)(C)N1)C(=O)O	middle
C[C@H](NC(=O)[C@@H]1CCCN1)C(=O)N[C@@H](CO)C(=O)NCCCC[C@H](NC(=O)[C@@H]1Cc2cc(O)c(O)cc2C(C)(C)N1)C(=O)O	middle
C[C@H](NC(=O)[C@@H]1CCCN1)C(=O)N[C@@H](Cc1ccccc1)C(=O)NCCCC[C@H](NC(=O)[C@@H]1Cc2cc(O)c(O)cc2C(C)(C)N1)C(=O)O	high end
C[C@H](NC(=O)[C@@H]1CCCN1)C(=O)N[C@@H](Cc1c[nH]c2ccccc12)C(=O)NCCCC[C@H](NC(=O)[C@@H]1Cc2cc(O)c(O)cc2C(C)(C)N1)C(=O)O	low end
C[C@H](NC(=O)[C@@H]1CCCN1)C(=O)N[C@@H](CCCCN)C(=O)NCCCC[C@H](NC(=O)[C@@H]1Cc2cc(O)c(O)cc2C(C)(C)N1)C(=O)O	middle

Which bin should I file C[C@H](NC(=O)[C@@H]1CCCN1)C(=O)N[C@H](C(=O)NCCCC[C@H](NC(=O)[C@@H]1Cc2cc(O)c(O)cc2C(C)(C)N1)C(=O)O)[C@@H](C)O under?
middle

Another compound to check: C[C@H](NC(=O)[C@@H]1CCCN1)C(=O)N[C@@H](Cc1ccc(O)cc1)C(=O)NCCCC[C@H](NC(=O)[C@@H]1Cc2cc(O)c(O)cc2C(C)(C)N1)C(=O)O
low end

Another compound to check: C[C@H](NC(=O)[C@@H]1CCCN1)C(=O)N[C@@H](CCC(N)=O)C(=O)NCCCC[C@H](NC(=O)[C@@H]1Cc2cc(O)c(O)cc2C(C)(C)N1)C(=O)O
middle

Another compound to check: C[C@H](NC(=O)[C@@H]1CCCN1)C(=O)N[C@@H](CC(N)=O)C(=O)NCCCC[C@H](NC(=O)[C@@H]1Cc2cc(O)c(O)cc2C(C)(C)N1)C(=O)O
high end
